Origin of the recorded values: ChEMBL document CHEMBL3885881

- Species on record: Rattus norvegicus
- ASSAY NAME: DrugMatrix - Regimen: Daily Repeat
- Format: toxicity, organism-based, Sprague-Dawley
- Design: regimen Daily Repeat, gender Male, age 6-8 weeks
- EXPERIMENTAL CONDITIONS: in vivo, po, 1500 mg/kg, 120 h, tissue Blood, route oral GAVAGE, dose level High, time 5 day, vehicle .5 % CMC
Task for the reader: assign each of the following molecules its reported EOSINOPHIL.
One number for each entry, in %.

Endpoint output: EOSINOPHIL of Cc1ccc(S(=O)(=O)NC(=O)NN2CC3CCCC3C2)cc1 (configuration not stated) [GLICLAZIDE] . Value?
0

Quick check: EOSINOPHIL of NC(=O)c1cnccn1 [PYRAZINAMIDE] ?
0.67

Dear colleague, could you send me EOSINOPHIL for each of the items below? Thanks.
1. CNC(=C[N+](=O)[O-])NCCSCc1ccc(CN(C)C)o1
2. CO[C@H]1/C=C/O[C@@]2(C)Oc3c(C)c(O)c4c(c3C2=O)C2=NC3(CCN(CC(C)C)CC3)NC2=C(NC(=O)/C(C)=C\C=C\[C@H](C)[C@H](O)[C@@H](C)[C@@H](O)[C@@H](C)[C@H](OC(C)=O)[C@@H]1C)C4=O

[0.33, 0]

###

- Species: Rattus norvegicus
- ASSAY NAME: DrugMatrix - Regimen: Daily Repeat
- Type: toxicity, organism-based, Sprague-Dawley
- Design: regimen Daily Repeat, gender Male, age 6-8 weeks
- EXPERIMENTAL CONDITIONS: in vivo, po, 0 mg/kg, 72 h, tissue Plasma, route oral GAVAGE, dose level Control, time 3 day, vehicle 100 % WATER
Task for the reader: assign each of the following molecules its reported LIPASE.
Give bare numbers, in u/L.

Study these solved cases before continuing.
What does the data say about its LIPASE? Entry: `CC(C)C[C@H](NC(=O)[C@@H](O)[C@H](N)Cc1ccccc1)C(=O)O`
9.33

// returns reported LIPASE for input `COc1cc2ncnc(Nc3ccc(F)c(Cl)c3)c2cc1OCCCN1CCOCC1`
11.67

# lookup: LIPASE of `Cc1ncc([N+](=O)[O-])n1CCO`
9.5

Would you mind telling me what LIPASE value was observed for COC(=O)C1=C(C)NC(C)=C(C(=O)OCC(C)C)C1c1ccccc1[N+](=O)[O-] (stereo not given) ?
9.17

Name the recorded LIPASE for C[C@@H]1C[C@@H]([C@H](O)CC2CC(=O)NC(=O)C2)C(=O)[C@@H](C)C1 [CYCLOHEXIMIDE] .
9.33

Returns the measured LIPASE for the input molecule. Input: ClC(Cl)Cl [CHLOROFORM]
9.5

Given the molecule CC(C)NCC(O)COc1cccc2ccccc12 (stereo not given) , what is its reported LIPASE?
10.67

Record request: LIPASE value, item `CC(C)(C)c1ccc(C(=O)CCCN2CCC(OC(c3ccccc3)c3ccccc3)CC2)cc1`
9.67

Provide the reported LIPASE of each entry below, same order.
1. Nc1ccn([C@@H]2CS[C@H](CO)O2)c(=O)n1
2. C[N+](C)(C)CCO.[Cl-] [CHOLINE CHLORIDE]

1. 9.5
2. 16.17

###

- Species: Rattus norvegicus
- ASSAY NAME: DrugMatrix - Regimen: Daily Repeat
- Type: toxicity, organism-based, Sprague-Dawley
- Parameters: regimen Daily Repeat, gender Male, age 6-8 weeks
- EXPERIMENTAL CONDITIONS: in vivo, ip, 0 mg/kg, […], tissue Blood, route intraperitoneal, dose level Control, time 14 day, vehicle 100 % SALINE
RECORDED METRIC: ABSOLUTE EOSINOPHIL (cells/µL)
Numbers only, in cells/µL.

Item `CCN[C@@H]1C[C@H](N)[C@@H](O[C@H]2OC(CN)=CC[C@H]2N)[C@H](O)[C@H]1O[C@H]1OC[C@](C)(O)[C@H](NC)[C@H]1O` has what recorded ABSOLUTE EOSINOPHIL?
140

###

- Species on record: Rattus norvegicus
- ASSAY NAME: DrugMatrix - Regimen: Daily Repeat
- Format: toxicity, organism-based, Sprague-Dawley
- Design: regimen Daily Repeat, gender Male, age 6-8 weeks
- EXPERIMENTAL CONDITIONS: in vivo, po, 1500 mg/kg, 72 h, tissue Plasma, route oral GAVAGE, dose level High, time 3 day, vehicle .5 % CMC
Kindly state ALBUMIN for each of the entries shown.
Answers are plain numbers, in G/DL.

Value lookup for ALBUMIN; key = NC(=O)c1cnccn1 [PYRAZINAMIDE]
4.13

Consider the molecule shown here: C[C@]1(Cn2ccnn2)[C@H](C(=O)O)N2C(=O)C[C@H]2S1(=O)=O [TAZOBACTAM] What is its recorded ALBUMIN?
4.1

Find the recorded ALBUMIN belonging to Cc1ccc(S(=O)(=O)NC(=O)NN2CC3CCCC3C2)cc1 (configuration not stated) [GLICLAZIDE] and report it.
4.03

Quick one: ALBUMIN of CO[C@H]1/C=C/O[C@@]2(C)Oc3c(C)c(O)c4c(c3C2=O)C2=NC3(CCN(CC(C)C)CC3)NC2=C(NC(=O)/C(C)=C\C=C\[C@H](C)[C@H](O)[C@@H](C)[C@@H](O)[C@@H](C)[C@H](OC(C)=O)[C@@H]1C)C4=O [RIFABUTIN] ?
4.43

Recorded ALBUMIN for Cc1cc(=O)n(-c2ccccc2)n1C [ANTIPYRINE] , please?
4.27

Quick one: ALBUMIN of O=C(N[C@H](CO)[C@H](O)c1ccc([N+](=O)[O-])cc1)C(Cl)Cl [CHLORAMPHENICOL] ?
4.33

Here is another molecule to look at.
Could you share which ALBUMIN value was measured for CNC(=C[N+](=O)[O-])NCCSCc1ccc(CN(C)C)o1 [RANITIDINE] ?
4.17

###

- Organism: Rattus norvegicus
- ASSAY NAME: DrugMatrix - Regimen: Daily Repeat
- Format: toxicity, organism-based, Sprague-Dawley
- Set-up: regimen Daily Repeat, gender Male, age 6-8 weeks
- EXPERIMENTAL CONDITIONS: in vivo, po, 0 mg/kg, 72 h, tissue Plasma, route oral GAVAGE, dose level Control, time 3 day, vehicle 100 % WATER
RECORDED METRIC: ALANINE AMINOTRANSFERASE (u/L)
One number for each entry, in u/L.

Please review the entries below; each comes with its answer.
Query (compound): `CC(C)C[C@H](NC(=O)[C@@H](O)[C@H](N)Cc1ccccc1)C(=O)O` ; field requested: ALANINE AMINOTRANSFERASE
50.83

Which ALANINE AMINOTRANSFERASE value belongs to ClC(Cl)Cl [CHLOROFORM] ?
48.33

Look up ALANINE AMINOTRANSFERASE: C[C@@H]1C[C@@H]([C@H](O)CC2CC(=O)NC(=O)C2)C(=O)[C@@H](C)C1 [CYCLOHEXIMIDE]
49.67

For each of the compounds below, note its ALANINE AMINOTRANSFERASE.
1. COC(=O)C1=C(C)NC(C)=C(C(=O)OCC(C)C)C1c1ccccc1[N+](=O)[O-] (stereo not given)
2. Nc1ccn([C@@H]2CS[C@H](CO)O2)c(=O)n1
3. CC(C)NCC(O)COc1cccc2ccccc12 (stereo not given)
4. Cc1ncc([N+](=O)[O-])n1CCO
5. C[N+](C)(C)CCO.[Cl-] [CHOLINE CHLORIDE]
6. CC(C)(C)c1ccc(C(=O)CCCN2CCC(OC(c3ccccc3)c3ccccc3)CC2)cc1

1: 54.17; 2: 50.5; 3: 52.67; 4: 48.33; 5: 62.17; 6: 45.17

Give the measured ALANINE AMINOTRANSFERASE of `COc1cc2ncnc(Nc3ccc(F)c(Cl)c3)c2cc1OCCCN1CCOCC1` .
47.67

###

Give measured ABSOLUTE MONOCYTE for each item. Keep answers brief.
- Species on record: Rattus norvegicus
- ASSAY NAME: DrugMatrix - Regimen: Daily Repeat
- Format: toxicity, organism-based, Sprague-Dawley
- Design: regimen Daily Repeat, gender Male, age 6-8 weeks
- EXPERIMENTAL CONDITIONS: in vivo, po, 10 mg/kg, 72 h, tissue Blood, route oral GAVAGE, dose level Low, time 3 day, […]
Give bare numbers, in CELLS/uL.

Record excerpt, results attached:
Can you share its ABSOLUTE MONOCYTE? I mean this compound: CC(C)CC(N(C)C)C1(c2ccc(Cl)cc2)CCC1 (centres undefined)
131.33

Which ABSOLUTE MONOCYTE value belongs to COCCOC(=O)C1=C(C)NC(C)=C(C(=O)OC(C)C)C1c1cccc([N+](=O)[O-])c1 (centres undefined) ?
34.33

Need ABSOLUTE MONOCYTE, item `COc1ccc2cc([C@H](C)C(=O)O)ccc2c1`
484

---
Can you share its ABSOLUTE MONOCYTE? I mean this compound: CCOC(=O)C1=C(C)NC(C)=C(C(=O)OC)C1c1cccc([N+](=O)[O-])c1 (centres undefined)
145.33
